# Assay Notes: yeast display, Sf9 membrane polyspecificity reagent, FACS + sequencing; frameworks hold sequencing errors
Endpoint: polyreactivity (PSR sort gate)

| Residue Codes | Endpoint | Reported Measurement |
| --- | --- | --- |
| QVQLVESGGGLVQAGGSLRLSCAASGRIFGYNAMGWYRQAPGTERELVAAISSSGGGTYYADSVKGRFTISRDNAKNTVYLQMNSLKPEDTAVYYCAAYTRPGRYDYWGQGTQVTVSS | polyreactivity (PSR sort gate) | high polyreactivity |
| QVQIEESGGCLVQAGGSLRLTCAASGRIISWNAMGWSRQAPGKERELVAGITWNGGRTYYADSVKGRFTISRDNVKNTVYLQMNSLKPEDTAVFSCNAERFDLTYNYWGQGTQVTVSS | polyreactivity (PSR sort gate) | high polyreactivity |
